These data points were gathered from ChEMBL document CHEMBL3585306.

// IC50 collected for Human immunodeficiency virus type 1 reverse transcriptase (Human immunodeficiency virus 1)
Numbers only, in µM.

CCn1cc(C(=O)O)c(=O)c2ccc(Oc3ccnc(Nc4ccc(C#N)cc4)n3)cc21 : 7.15

# return IC50 for each item in the list
1. CC(C)Cn1cc(C(=O)O)c(=O)c2ccc(Oc3ccnc(Nc4ccc(C#N)cc4)n3)cc21
2. CCn1cc(C(=O)O)c(=O)c2ccc(Nc3ccnc(Nc4ccc(C#N)cc4)n3)cc21

# output
1. 14
2. 7.07

Give one value of IC50 per listed compound.
1. CCCn1cc(C(=O)O)c(=O)c2ccc(Oc3ccnc(Nc4ccc(C#N)cc4)n3)cc21
2. N#Cc1ccc(Nc2nccc(Oc3ccc4c(=O)c(C(=O)O)cn(C5CCCC5)c4c3)n2)cc1
3. CCCCn1cc(C(=O)O)c(=O)c2ccc(Oc3ccnc(Nc4ccc(C#N)cc4)n3)cc21

# output
[9.12, 6.08, 3.49]
